Ref: patent US20260242735A1

Target Or Test System: human CD33 Q311A (human, UniProt P20138 18-364)
Sequence (P20138 18-364 Q311A limits assumed): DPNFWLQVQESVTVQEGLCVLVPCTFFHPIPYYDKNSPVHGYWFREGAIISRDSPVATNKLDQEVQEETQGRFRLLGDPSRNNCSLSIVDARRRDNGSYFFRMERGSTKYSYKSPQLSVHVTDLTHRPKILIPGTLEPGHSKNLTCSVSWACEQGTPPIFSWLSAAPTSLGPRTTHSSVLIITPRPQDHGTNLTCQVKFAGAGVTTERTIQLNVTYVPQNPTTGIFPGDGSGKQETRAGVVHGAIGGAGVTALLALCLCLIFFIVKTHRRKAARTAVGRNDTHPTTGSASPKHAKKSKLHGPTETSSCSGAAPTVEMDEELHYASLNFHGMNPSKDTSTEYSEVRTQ
Test Details: alanine scan, flow cytometry, HEK293-T;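 note: antibody binding to each alanine-substituted CD33 mutant expressed transiently in HEK293-T, read as fluorescence minus background, mean of duplicates, relative to wild-type CD33 set as 100%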
A collection of binders and their measured Mean % WT Binding

{"Binder": "Refmab #2 (antibody, V domains shown, The alanine scan used IgG or Fab) VH: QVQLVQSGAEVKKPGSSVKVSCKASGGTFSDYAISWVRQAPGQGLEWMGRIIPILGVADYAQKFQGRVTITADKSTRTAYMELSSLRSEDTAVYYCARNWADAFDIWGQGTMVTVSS VL: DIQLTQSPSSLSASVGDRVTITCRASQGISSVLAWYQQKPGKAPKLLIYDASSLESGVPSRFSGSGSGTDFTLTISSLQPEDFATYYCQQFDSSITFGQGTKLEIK", "Mean % WT Binding [% WT binding]": 99.5}
{"Binder": "Refmab #3 (antibody, V domains shown, The alanine scan used IgG or Fab) VH: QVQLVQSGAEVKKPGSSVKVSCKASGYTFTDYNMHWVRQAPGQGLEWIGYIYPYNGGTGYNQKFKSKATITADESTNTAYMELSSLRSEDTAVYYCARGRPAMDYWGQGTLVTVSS VL: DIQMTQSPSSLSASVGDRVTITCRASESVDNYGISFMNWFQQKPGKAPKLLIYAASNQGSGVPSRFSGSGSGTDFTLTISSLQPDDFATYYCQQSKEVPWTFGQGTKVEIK", "Mean % WT Binding [% WT binding]": 124}
{"Binder": "Refmab #4 (antibody, V domains shown, The alanine scan used IgG or Fab) VH: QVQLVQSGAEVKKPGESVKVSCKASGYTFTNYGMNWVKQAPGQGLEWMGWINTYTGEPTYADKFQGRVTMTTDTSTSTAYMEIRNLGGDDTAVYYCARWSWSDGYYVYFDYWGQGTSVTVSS VL: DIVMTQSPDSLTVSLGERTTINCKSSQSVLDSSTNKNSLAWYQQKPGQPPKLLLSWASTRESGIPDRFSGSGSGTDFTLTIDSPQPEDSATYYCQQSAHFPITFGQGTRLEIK", "Mean % WT Binding [% WT binding]": 102}
{"Binder": "Refmab #1 (antibody, V domains shown, The alanine scan used IgG or Fab; also called hP67.6) VH: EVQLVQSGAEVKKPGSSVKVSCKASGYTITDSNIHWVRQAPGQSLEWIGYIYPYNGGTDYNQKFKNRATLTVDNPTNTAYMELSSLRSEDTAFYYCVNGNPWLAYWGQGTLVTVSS VL: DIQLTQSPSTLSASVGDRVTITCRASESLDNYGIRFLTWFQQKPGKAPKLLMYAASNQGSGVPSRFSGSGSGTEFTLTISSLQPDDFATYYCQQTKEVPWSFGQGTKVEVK", "Mean % WT Binding [% WT binding]": 90.4}
